Test system: PC3-CXCR4 xenograft tumors
Assay notes: Biodistribution in mice bearing bilateral PC3-WT/PC3-CXCR4 xenograft tumors
Format: in vivo, BALB/c mice
Measurement conditions: 1 h p.i.
Metric name: PC3-WT tumor activity (%ID/g)
Reply with just the number (in %ID/g).

// PC3-WT tumor activity lookup, key: FCCn1cc(-c2cc(CNCc3ccccn3)ccc2CN2CCCNCCNCCCNCC2)nn1
0.91

// PC3-WT tumor activity lookup, key: FCCn1cc(CNCc2ccc(CN3CCCNCCNCCCNCC3)cc2)nn1
1.54

// PC3-WT tumor activity lookup, key: FCCn1cc(-c2cc(CN3CCCNCCNCCCNCC3)ccc2CNCc2ccccn2)nn1
2.85

// PC3-WT tumor activity lookup, key: FCCn1cc(CCNCc2ccc(CN3CCCNCCNCCCNCC3)cc2)nn1
1.00

====

Tested on: PC3-CXCR4 xenograft tumors
Assay notes: Biodistribution in mice bearing bilateral PC3-WT/PC3-CXCR4 xenograft tumors
Type: in vivo, BALB/c mice
Measurement conditions: 1 h p.i.
Metric name: Kidneys tissue activity
Answer by giving the amount and then stating its unit.

>>> df
                            chemical_string  reported_measurement
0  FCCn1cc(CNCc2ccc(CN3CCCNCCNCCCNCC3)cc2)nn1    10.73 ± 1.10 %ID/g
1  FCCn1cc(-c2cc(CN3CCCNCCNCCCNCC3)ccc2CNCc2ccccn2)nn1       7.43±0.96 %ID/g
2  FCCn1cc(CCNCc2ccc(CN3CCCNCCNCCCNCC3)cc2)nn1     7.23 ± 2.66 %ID/g

Give recorded Kidneys tissue activity with PC3-CXCR4 xenograft tumors for the following molecule: FCCn1cc(-c2cc(CNCc3ccccn3)ccc2CN2CCCNCCNCCCNCC2)nn1
12.17 ± 0.78 %ID/g

====

Assay notes: Biodistribution in mice bearing bilateral PC3-WT/PC3-CXCR4 xenograft tumors
Assay type: in vivo, BALB/c mice
Measurement conditions: male, BALB/c athymic nude, mouse, PC3-CXCR4 tumor and liver, iv, total radioactivity, 2 h p.i.; read-out: PC3-CXCR4 Tumor-to-Tissue Ratio Liver
Non-standard residues stand in square brackets, D forms with d. Residues, ends and D or L forms follow the SMILES beside them. Groups on a side chain read outwards from the residue. *: point of attachment. DOTA = O=C(O)CN1CCN(CC(=O)O)CCN(CC(=O)*)CCN(CC(=O)O)CC1; 2Nal = N[C@@H](Cc1ccc2ccccc2c1)C(=O)O; dNMeOrn = CN[C@H](CCCN)C(=O)O; 4Amb = NCc1ccc(C(=O)O)cc1
Metric name: tissue to tissue ratio at 2 h
Answer using only a numeral; do not append any unit.

// tissue to tissue ratio at 2 h lookup, key: CN1C(=O)[C@@H](Cc2ccc(O)cc2)NC(=O)CNC(=O)[C@H](Cc2ccc3ccccc3c2)NC(=O)[C@H](CCCNC(=N)N)NC(=O)[C@H]1CCCNC(=O)c1ccc(CNC(=O)CN2CCN(CC(=O)O)CCN(CC(=O)O)CCN(CC(=O)O)CC2)cc1 (68Ga complex, metal not drawn) [Pentixafor, reference compound] (cyclo([dY][dNMeOrn]([4Amb-DOTA])R[2Nal]G))
10.8

====

Test system: PC3-CXCR4 xenograft tumors
Assay notes: Biodistribution in mice bearing bilateral PC3-WT/PC3-CXCR4 xenograft tumors
Assay type: in vivo, BALB/c mice
Measurement conditions: 1 h p.i.
Metric name: Muscle tissue activity (%ID/g)
Reply with just the number (in %ID/g).

// Muscle tissue activity lookup, key: FCCn1cc(CCNCc2ccc(CN3CCCNCCNCCCNCC3)cc2)nn1
0.15

// Muscle tissue activity lookup, key: FCCn1cc(-c2cc(CNCc3ccccn3)ccc2CN2CCCNCCNCCCNCC2)nn1
0.67

// Muscle tissue activity lookup, key: FCCn1cc(-c2cc(CN3CCCNCCNCCCNCC3)ccc2CNCc2ccccn2)nn1
0.19

// Muscle tissue activity lookup, key: FCCn1cc(CNCc2ccc(CN3CCCNCCNCCCNCC3)cc2)nn1
0.14
